Tested on: Serratia marcescens expressing IMP-1 (CL5741)
Assay type: cell-based
Conditions Used: with imipenem 1 μg/ml; 95% inhibition of bacterial growth
Experimental: The bacterial strains tested included the clinical strains Escherichia coil expressing NDM-1 (CLB30005, CLB30016), Serratia marcescens expressing IMP-1 (CL5741), and Klebsiella pneumoniae expressing VIM-1 (H-LMA599644). Inhibitor activity was measured in the presence and absence of imipenem in a 384-well microplate. The clinical strains CLB30016, CL5741 and IHMA599644 were grown on trypticase soy agar containing 5% sheep's blood. […]
Answer each item with its documented CL5741 S. marcescens MITC95 IMP.
Returns: string containing the number followed by the unit.

// solved cases for CL5741 S. marcescens MITC95 IMP follow
line_notation=NC[C@@H](O)CNS(=O)(=O)c1ccc(N2CCN(CCO)CC2)c(-c2nnn[nH]2)c1S(N)(=O)=O target_of_assay="Serratia marcescens expressing IMP-1 (CL5741)" measure_name="CL5741 S. marcescens MITC95 IMP" val="0.10 µM"
line_notation=NS(=O)(=O)c1c(S(=O)(=O)N[C@@H]2CCNC2)ccc(N2CCC3(CC2)CNC3)c1-c1nnn[nH]1 target_of_assay="Serratia marcescens expressing IMP-1 (CL5741)" measure_name="CL5741 S. marcescens MITC95 IMP" val="1.56 µM"
line_notation=NCCNS(=O)(=O)c1ccc(N2CCC(O)(CN)CC2)c(-c2nn[nH]n2)c1S(N)(=O)=O target_of_assay="Serratia marcescens expressing IMP-1 (CL5741)" measure_name="CL5741 S. marcescens MITC95 IMP" val="0.78 µM"

We now examine a further molecule.
## Input Return CL5741 S. marcescens MITC95 IMP for the following molecule: "NCC1CCN(c2ccc(S(=O)(=O)NC[C@H](O)CN)c(S(N)(=O)=O)c2-c2nnn[nH]2)CC1"
## Output 0.39 µM

###

Target Of Assay: VIM-1 (Pseudomonas aeruginosa (strain ATCC 15692 / DSM 22644 / CIP 104116 / JCM 14847 / LMG 12228 / 1C / PRS 101 / PAO1), UniProt A0A0F7KYQ8)
Experiment Summary: biochemical
Conditions Used: CCF2-FA fluorescence assay, 2 hours at 25° C.; read-out: VIM1 IC50
Measure Name: IC50 (nM)
Give bare numbers, in nM.

For each entry beneath this line, provide reported IC50.
1. NS(=O)(=O)c1c(S(=O)(=O)N[C@@H]2CCNC2)ccc(N2CC[C@@H](O)C2)c1-c1nnn[nH]1
2. NC[C@@H](O)CNS(=O)(=O)c1ccc(N2CCC(O)CC2)c(-c2nn[nH]n2)c1S(N)(=O)=O
3. NC1CCCCN(c2ccc(S(=O)(=O)C3CNC3)c(S(N)(=O)=O)c2-c2nnn[nH]2)C1 (stereo not shown)
4. CN(CCO)CCN(C)c1ccc(S(=O)(=O)NC[C@H](O)CN)c(S(N)(=O)=O)c1-c1nn[nH]n1

## Output
1: 2.66; 2: 0.26; 3: 4.43; 4: 14.2

###

Target Of Assay: VIM-2 (Escherichia coli)
Experiment Summary: biochemical
Conditions Used: CCF2-FA fluorescence assay; read-out: VIM2 IC50
Measure Name: pIC50
Numbers only, as −log10 of the molar value.

// solved cases for pIC50 follow
molecule="NC1CCN(c2ccc(S(=O)(=O)N[C@@H]3CCNC3)c(S(N)(=O)=O)c2-c2nn[nH]n2)C(=O)C1 (stereo partly shown)" val=7.64
molecule=NC[C@@H](O)CNS(=O)(=O)c1ccc(N[C@H]2CCC[C@H]2N)c(-c2nn[nH]n2)c1S(N)(=O)=O val=6.88
molecule=NC[C@@H](O)CNS(=O)(=O)c1ccc(N2CC[C@@H](N)C2)c(-c2nn[nH]n2)c1S(N)(=O)=O val=7.27

## Input Return pIC50 for the following molecule: NS(=O)(=O)c1c(S(=O)(=O)N[C@@H]2CCNC2)ccc(N2CCCC(CO)C2)c1-c1nnn[nH]1 (stereo partly shown)
## Output 9.38

###

Target Of Assay: VIM-1 (Pseudomonas aeruginosa (strain ATCC 15692 / DSM 22644 / CIP 104116 / JCM 14847 / LMG 12228 / 1C / PRS 101 / PAO1), UniProt A0A0F7KYQ8)
Experiment Summary: biochemical
Conditions Used: CCF2-FA fluorescence assay, 2 hours at 25° C.; read-out: VIM1 IC50
Measure Name: IC50 (nM)
One number for each entry, in nM.

// solved cases for IC50 follow
compound=NS(=O)(=O)c1c(S(=O)(=O)N[C@@H]2CCNC2)ccc(N2CCC(CCO)CC2)c1-c1nnn[nH]1 measure_name=IC50 unit_of_measurement=nM val=0.15
compound=NS(=O)(=O)c1c(S(=O)(=O)C2CNC2)ccc(N2CCC[C@H](O)C2)c1-c1nnn[nH]1 measure_name=IC50 unit_of_measurement=nM val=1.44

For each entry beneath this line, provide reported IC50.
1. NC[C@H](N)CNS(=O)(=O)c1ccc(N2CCC(CO)CC2)c(-c2nnn[nH]2)c1S(N)(=O)=O
2. NC[C@@H](O)CNS(=O)(=O)c1ccc(N2CCC3(CC2)CNC(=O)OC3)c(-c2nn[nH]n2)c1S(N)(=O)=O
3. NCCC1CCN(c2ccc(S(=O)(=O)NC[C@H](O)CN)c(S(N)(=O)=O)c2-c2nn[nH]n2)CC1
4. NCCS(=O)(=O)c1ccc(N2CCCCC2)c(-c2nnn[nH]2)c1S(N)(=O)=O

## Output
0.06
0.63
0.45
0.73

###

Answer each item with its documented Efflux ratio.
System: P. aeruginosa MB9798 (efflux+, IMP-1 plasmid)
Conditions Used: fold difference between efflux+ (MB9798) and efflux− (MB9799) strains
Text: The strain background is Pseudomonas aeruginosa PAO1. A wild-type (M135919) and an isogenic strain in which multiple efflux pumps have been disrupted genetically were used. The MBL IMP-1, obtained from a clinical isolate was introduced into the strain pair by the following process: The plasmid DNA was transformed into parental MB5919 (oprD+, efflux+, inducible AmpC) and MB5890 (oprD+, efflux−, inducible AmpC) isogenic strains by electroporation. […]
Structures can show the parent of a compound that is named as a salt.
One number for each entry.

// solved cases for Efflux ratio follow
compound="NC[C@@H](O)CNS(=O)(=O)c1ccc(N2CCC(C(N)=O)C2)c(-c2nn[nH]n2)c1S(N)(=O)=O (stereo partly shown) [Example 118]" val=1.00
compound="NC[C@@H](O)CNS(=O)(=O)c1ccc(N2CCC[C@@H](NCCO)C2)c(-c2nn[nH]n2)c1S(N)(=O)=O [Example 130, trifluoroacetate]" val=4.00
compound="NS(=O)(=O)c1c(S(=O)(=O)N[C@@H]2CCNC2)ccc(N2CCC(Cc3ccccn3)CC2)c1-c1nnn[nH]1 [Example 106]" val=16.00
compound="NS(=O)(=O)c1c(S(=O)(=O)C2CNC2)ccc(N2CCC3(CCNCC3)CC2)c1-c1nnn[nH]1 [Example 30]" val=2.00

For each entry beneath this line, provide reported Efflux ratio.
1. NS(=O)(=O)c1c(S(=O)(=O)N[C@@H]2CCNC2)ccc(N2CCN(CCO)CC2)c1-c1nnn[nH]1 [Example 102]
2. NS(=O)(=O)c1c(S(=O)(=O)N[C@@H]2CCNC2)ccc(N2CCC(CCF)CC2)c1-c1nnn[nH]1 [Example 87]
3. NC[C@@H](O)CNS(=O)(=O)c1ccc(N2CCC(C(N)CO)CC2)c(-c2nn[nH]n2)c1S(N)(=O)=O (mixture of isomers) [Example 182]

## Output
1. 2.00
2. 8.00
3. 1.00

###

Answer each item with its documented CL5741 S. marcescens MITC95 IMP.
Test system: Serratia marcescens expressing IMP-1 (CL5741)
Type: cell-based
Conditions Used: with imipenem 1 μg/ml; 95% inhibition of bacterial growth
Returns: string containing the number followed by the unit.

For each entry beneath this line, provide reported CL5741 S. marcescens MITC95 IMP.
1. NC[C@@H](O)CNS(=O)(=O)c1ccc(N2C[C@H]3CNC[C@H]3C2)c(-c2nn[nH]n2)c1S(N)(=O)=O
2. NS(=O)(=O)c1c(S(=O)(=O)C2CNC2)ccc(N2CCN(CCO)CC2)c1-c1nnn[nH]1
3. NS(=O)(=O)c1c(S(=O)(=O)N[C@@H]2CCNC2)ccc(N2CCCC(C(=O)NCCCO)C2)c1-c1nnn[nH]1 (stereo partly shown)
4. NCCC(=O)N1CCN(c2ccc(S(=O)(=O)NC[C@H](O)CN)c(S(N)(=O)=O)c2-c2nn[nH]n2)CC1

## Output
3.13 µM
0.39 µM
12.50 µM
0.78 µM

###

Target Of Assay: VIM-2 (Escherichia coli, UniProt Q5U7L7)
Experiment Summary: biochemical
Conditions Used: CCF2-FA fluorescence assay; read-out: VIM2 IC50
pIC50: −log10 of the molar value.
Please note: Fulfilled applies when pIC50 is 8 or greater, and Not fulfilled applies otherwise.

compound=NC[C@@H](O)CNS(=O)(=O)c1ccc(N2CCC(F)(CO)CC2)c(-c2nn[nH]n2)c1S(N)(=O)=O assigned_label=Fulfilled
compound=NCCCC1CCN(c2ccc(S(=O)(=O)NC[C@H](O)CN)c(S(N)(=O)=O)c2-c2nn[nH]n2)CC1 assigned_label=Fulfilled

From here, focus on the item given below.
## Input Can "NS(=O)(=O)c1c(S(=O)(=O)C2CNC2)ccc(N2CC[C@H](CO)[C@H](F)C2)c1-c1nnn[nH]1" be said to have pIC50 at or above 8?
## Output Fulfilled

Values were extracted from patent US11207312B2.
